Tested on: L1210 leukemia ip in BDF1 mice, survival T/C
EXPERIMENTAL_PROTOCOL: NCI In Vivo Anticancer Drug Screen. Data for tumor model L1210 Leukemia (intraperitoneal) in B6D2F1 (BDF1) mice
APPLIED_CONDITIONS: endpoint: mean survival time; dose: 40.0 mg/kg/injection; schedule: Q01DX001 (ip); vehicle: saline; higher = longer survival
Toxic doses and inconclusive results are not listed.
READOUT_TYPE: T/C

Known value: L1210 leukemia ip in BDF1 mice, survival T/C T/C of the compound CCOP(=O)(OCC)Oc1cc(C)c(C#N)c(C)c1 equals 103 % of control

Known value: L1210 leukemia ip in BDF1 mice, survival T/C T/C of the compound CCN1/C(=C/C(C)=C/c2[se]c3ccccc3[n+]2CC)[Se]c2ccc(OC)cc21 equals 100 % of control

Known value: L1210 leukemia ip in BDF1 mice, survival T/C T/C of the compound CCC(CC)COC(=O)CI equals 100 % of control

Known value: L1210 leukemia ip in BDF1 mice, survival T/C T/C of the compound CC(N)CCCO (stereo not given) equals 101 % of control

Known value: L1210 leukemia ip in BDF1 mice, survival T/C T/C of the compound CCOC(=O)/C(C#N)=C(\C)CC(C)C equals 98 % of control
